System: NRDP1
Test: GFPu assay selectivity screen, cells transfected with NRDP1
Assay type: cell-based
Details: GFPu assay, NRDP1 transfected cells; 10 uM to about 78 nM; read-out: NRDP IC50
Provide the recorded IC50 for the entries that follow.
Express your answer in nM, writing the number without its unit.

Q) Give IC50 for this entry on NRDP1: O=C(N[C@@H](Cc1ccccc1)C(=O)CCl)OCc1ccccc1
A) 260

Q) Give IC50 for this entry on NRDP1: O=c1[nH]cc(F)c(=O)[nH]1
A) 1600

* * *

Provide the recorded TC50 for the entries that follow.
Test system: HEK293 cells
Test: Cytotoxicity (cell count) in HEK293 cells

Q) Provide measured TC50 value, entry: O=C(N[C@@H](Cc1ccccc1)C(=O)CCl)OCc1ccccc1
A) 10 µM

Q) Provide measured TC50 value, entry: O=c1[nH]cc(F)c(=O)[nH]1
A) > 10 µM
